# assay.target: T1, Human Factor P (human, UniProt P27918 29-469)
# T1 construct: Bought protein (Complement Technology cat# A139) in SET and Biacore; Factor P of human serum in the functional assays; also called FP; human FP
# T1 sequence (P27918 29-469 limits assumed): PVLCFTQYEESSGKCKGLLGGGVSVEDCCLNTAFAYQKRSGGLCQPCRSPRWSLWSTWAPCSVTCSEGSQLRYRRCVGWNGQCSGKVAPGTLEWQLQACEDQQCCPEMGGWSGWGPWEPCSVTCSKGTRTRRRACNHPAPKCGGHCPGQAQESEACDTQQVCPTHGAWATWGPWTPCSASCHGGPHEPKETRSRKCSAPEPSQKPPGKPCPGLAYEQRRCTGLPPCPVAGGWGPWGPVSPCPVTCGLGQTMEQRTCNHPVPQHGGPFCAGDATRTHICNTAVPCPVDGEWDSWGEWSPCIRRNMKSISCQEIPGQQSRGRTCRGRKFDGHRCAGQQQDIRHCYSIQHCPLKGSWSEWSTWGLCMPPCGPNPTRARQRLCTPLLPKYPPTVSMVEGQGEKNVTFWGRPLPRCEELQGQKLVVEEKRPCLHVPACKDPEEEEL
# procedure.details: Biacore SPR, captured Factor P
quantity.kind: Kd (nM)

| binder | reported.result |
| --- | --- |
| NVS962-S (Fab, V domains shown, NVS962 with heavy chain N30 replaced with serine) VH: EVQLVQSGAEVKKPGSSVKVSCKASGGTFSSYAISWVRQAPGQGLEWMGRIIPIFGTANYAQKFQGRVTITADESTSTAYMELSSLRSEDTAVYYCARHGGYSFDSWGQGTLVTVSS VL: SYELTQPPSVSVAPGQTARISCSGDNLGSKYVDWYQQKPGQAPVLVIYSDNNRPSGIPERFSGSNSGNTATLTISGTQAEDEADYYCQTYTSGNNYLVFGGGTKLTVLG | 0.161 |
| NVS962-T (Fab, V domains shown, NVS962 with heavy chain N30 replaced with threonine; also called NSV962-T) VH: EVQLVQSGAEVKKPGSSVKVSCKASGGTFTSYAISWVRQAPGQGLEWMGRIIPIFGTANYAQKFQGRVTITADESTSTAYMELSSLRSEDTAVYYCARHGGYSFDSWGQGTLVTVSS VL: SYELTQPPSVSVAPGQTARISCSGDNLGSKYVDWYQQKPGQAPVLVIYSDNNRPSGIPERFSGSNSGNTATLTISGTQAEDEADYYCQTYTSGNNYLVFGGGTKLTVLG | 0.131 |
| NVS809 (Fab, V domains shown) VH: EVQLVQSGAEVKKPGSSVKVSCKASGGTFSSYAISWVRQAPGQGLEWMGRIIPIFGTANYAQKFQGRVTITADESTSTAYMELSSLRSEDTAVYYCARHGGYYFDSWGQGTLVTVSS VL: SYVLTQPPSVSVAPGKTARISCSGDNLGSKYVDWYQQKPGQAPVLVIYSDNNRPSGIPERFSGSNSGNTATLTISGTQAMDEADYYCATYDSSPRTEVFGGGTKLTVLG | 0.0247 |
